Where do these numbers come from? They come from ChEMBL document CHEMBL1125301.

- TARGET OR SYSTEM: Serotonin 2 (5-HT2) receptor (Rattus norvegicus, UniProt P30994+P08909+P14842)
- TEST SUMMARY: Compound was evaluated for binding affinity towards 5-hydroxytryptamine 2 receptor in rat anterior cortex using [3H]ketanserin as radioligand
PROPERTY LABEL: IC50 (µM)
// units = µM; emit number, no label

Would you please look over these solved cases?
- RECORD SMILES: "CN(C)CCc1c[nH]c2cc3c(cc12)OCCC3"
  PROPERTY LABEL: "IC50"
  OUTPUT UNIT: "µM"
  TEST VALUE: 5.9
- RECORD SMILES: "NCCc1c[nH]c2ccc3c(c12)CCCO3"
  PROPERTY LABEL: "IC50"
  OUTPUT UNIT: "µM"
  TEST VALUE: 2.2
- RECORD SMILES: "Cn1cc(CCN)c2c3c(ccc21)OCCC3"
  PROPERTY LABEL: "IC50"
  OUTPUT UNIT: "µM"
  TEST VALUE: 0.8

The record that follows has no IC50 shown yet.
// sample CN(C)CCc1cn(C)c2ccc3c(c12)CCCO3 , its IC50 was 1
